Task for the reader: assign each of the following molecules its reported z-score.
- systemTested: NADPH oxidase 5 (Homo sapiens) (UniProt Q96PH1)
- Sequence (Q96PH1 whole entry, looked up): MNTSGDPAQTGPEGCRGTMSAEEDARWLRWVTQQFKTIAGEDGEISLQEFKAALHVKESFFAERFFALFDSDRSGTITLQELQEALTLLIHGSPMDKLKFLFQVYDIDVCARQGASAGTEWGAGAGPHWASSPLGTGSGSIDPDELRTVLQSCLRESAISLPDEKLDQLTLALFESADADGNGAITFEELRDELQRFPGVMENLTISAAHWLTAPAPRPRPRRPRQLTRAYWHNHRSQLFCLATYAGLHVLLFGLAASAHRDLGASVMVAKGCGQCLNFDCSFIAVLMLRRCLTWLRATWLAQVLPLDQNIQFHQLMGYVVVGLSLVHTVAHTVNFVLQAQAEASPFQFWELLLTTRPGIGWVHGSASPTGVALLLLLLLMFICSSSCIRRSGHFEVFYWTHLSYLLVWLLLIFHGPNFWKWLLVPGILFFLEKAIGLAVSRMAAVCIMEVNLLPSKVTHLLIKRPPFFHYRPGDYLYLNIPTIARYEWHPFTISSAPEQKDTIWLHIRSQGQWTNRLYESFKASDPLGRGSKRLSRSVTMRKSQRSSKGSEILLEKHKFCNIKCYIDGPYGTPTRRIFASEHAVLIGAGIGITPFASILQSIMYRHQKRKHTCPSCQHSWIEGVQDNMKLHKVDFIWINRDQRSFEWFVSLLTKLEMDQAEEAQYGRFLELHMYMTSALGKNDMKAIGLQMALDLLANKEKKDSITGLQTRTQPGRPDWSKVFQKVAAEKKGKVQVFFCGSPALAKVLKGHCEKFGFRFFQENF
- assaySummary: compounds shifting NOX5 Amplex Red fluorescence – cell-based, HEK293-NOX5, NOX inhibitor project, primary screen (AID 1161)
- measurementContext: HEK293-NOX5, ionomycin, 45 min, higher = more signal
Write no unit; give the number alone.

Data request: Entry O=C1C2C=CC(C(O)c3ccc([N+](=O)[O-])cc3)N(Nc3ccccc3F)C2C(=O)N1c1ccccc1 (configuration not stated) : reported z-score = ?
Data returned: -3.11

Data request: Then this molecule: `COc1ccc(CCNC(=O)[C@@H]2c3ccccc3C(=O)N(Cc3ccccc3OC)[C@H]2c2ccc(CO)cc2)cc1`
Data returned: -2.09

Data request: Then this molecule: `O=C1O[C@@H](c2ccccc2)[C@@H](c2ccccc2)N2[C@@H](c3ccc(OCCO)cc3)[C@]3(C(=O)Nc4ccc(C#CC5(O)CCCCCC5)cc43)[C@@H](C(=O)Nc3nc4ccccc4s3)[C@H]12`
Data returned: 0.52

Data request: Then this molecule: `Cc1ccc(N2C(=O)c3ccccc3[C@](C)(C(=O)NCCCN(C)C)[C@@H]2c2ccc(CO)cc2)nc1`
Data returned: 0.199

Data request: Then this molecule: `COCCOC(=O)N1C(=O)[C@@]2(c3cc(C#CCC(C(=O)OC)C(=O)OC)ccc31)[C@H](C(N)=O)[C@H]1C(=O)O[C@H](c3ccccc3)[C@H](c3ccccc3)N1[C@@H]2c1ccc(O)cc1`
Data returned: 0.73

Data request: Then this molecule: CN1C(=O)C2C(C3CC3)C=C3CN(Cc4cccc(Cl)c4)[C@@H]([C@@H](O)Cc4ccccc4)C3C2C1=O (some centres not stated)
Data returned: 0.168

Data request: Then this molecule: N#Cc1ccc(NN2C(C(O)C3CC=CCC3)C=CC3C(=O)N(c4ccccc4)C(=O)C32)cc1 (configuration not stated)
Data returned: -2.39

###

- assaySummary: growth of efflux-deficient E. coli DRC39 – strain DRC39, OD650, 24 h, E. coli filamentation inducers, primary screen (AID 1178);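 also: growth measured as culture turbidity by optical density at 650 nm; test concentration not given here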
- measurementContext: E. coli DRC39 acrAB, higher = more signal, called active from +8 up or from −8 down
measure: z-score
Write no unit; give the number alone.

Data request: Entry `COC(=O)C[C@H]1O[C@@]2(C[C@@H]1[Si](C)(C)C)C(=O)N(C)c1ccccc12` : reported z-score = ?
Data returned: 2.3

Data request: Then this compound: `COCCCNC(=O)[C@@]1(CCS(=O)(=O)c2ccccc2)COC(c2ccc(OCCCO)cc2)=N1`
Data returned: 0.199

Data request: Then this compound: `O=C1N(Cc2ccccc2)c2ccccc2C[C@@]12COC(c1ccc(OCCCO)cc1)=N2`
Data returned: 1.17

Data request: Then this compound: `C[N+](C)(C)CCCC[C@@H]1NC(=O)[C@@H]2C[C@H](C(=O)NCc3ccc(F)cc3)[C@H](c3ccc(O)cc3)N2C1=O`
Data returned: 0.426

Data request: Then this compound: `C=CC[C@@]12N=C(c3ccc(OCCCO)cc3)O[C@@H]1c1ccccc1N(CCC)C2=O`
Data returned: 0.215

Data request: Then this compound: `CC(C)N1C(=O)C[C@@](C(=O)NCCN2CCOCC2)(c2ccc([N+](=O)[O-])cc2)[C@H]1c1ccc(CO)cc1`
Data returned: 0.0506

Data request: Then this compound: `C=CCOC(=O)[C@@H]1[C@H]2C(=O)O[C@H](c3ccccc3)[C@H](c3ccccc3)N2[C@H](c2ccc(OCCOC(=O)[C@H]3C[C@H]4C(=O)N5CCC[C@H]5C(=O)N4[C@H]3c3cccc(OCCO)c3)cc2)[C@@]12C(=O)Nc1ccc(I)cc12`
Data returned: -0.0055

Data request: Then this compound: `[N-]=[N+]=Nc1ccccc1C[C@@]1(C(=O)NCc2ccccc2)N=C(c2ccc(OCCCO)cc2)O[C@@H]1c1ccccc1N=[N+]=[N-]`
Data returned: 0.969

Data request: Then this compound: `C=CCNC(=O)[C@@H]1[C@H]2C(=O)O[C@H](c3ccccc3)[C@H](c3ccccc3)N2[C@H](c2ccc(OCCO)cc2)[C@@]12C(=O)Nc1ccc(C#CC3(O)CCCCCC3)cc12`
Data returned: -0.347

Data request: Then this compound: O=C1C2C=CC(C(O)c3cccs3)N(Nc3ccc([N+](=O)[O-])cc3)C2C(=O)N1c1ccccc1 (centres undefined)
Data returned: -0.958

Data request: Then this compound: CC(C)C[C@H]1NC(=O)C([C@@H](C)OCc2ccccc2)NC(=O)[C@@]23C(=O)N[C@@H](Cc4ccccc4)C2[C@H](C)[C@@]2(C)O[C@H]2C3/C=C/C/C=C\CNC1=O (some centres undefined)
Data returned: 0.12

Data request: Then this compound: C=CCC(OC(C)=O)[C@@H]1[C@@H](N(Cc2cccc3ccccc23)C(=O)Cc2ccc(OC)cc2)c2cc(OCCCO)ccc2N1C(=O)c1ccc2ccccc2c1 (some centres undefined)
Data returned: 1.22

Data request: Then this compound: `C=C(CCCC)/C(=C/C[C@H](OC(C)=O)c1cccc(OCCO)c1)c1cnc2ccccc2c1`
Data returned: 0.5

Data request: Then this compound: `Cc1ccc(S[C@]2(C(=O)NC3CC3)CC(=O)N(C(C)C)[C@@H]2c2ccc(CO)cc2I)cc1`
Data returned: 0.741

###

- assaySummary: probe aWnt5a binding to arrayed compounds – biochemical, biotinylated probe, 635/667 nm fluorescence, primary screen (AID 1113);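 also: score merges 667 nm fluorescence intensity with signal-to-noise per printed feature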
- measurementContext: small-molecule microarray, higher = more signal
Task for the reader: assign each of the following compounds its reported composite z-score.
Write no unit; give the number alone.

Data request: Entry `COC(=O)[C@@]1(Cc2ccccc2)[C@H]2c3cc(C(=O)N(C)C)n(Cc4ccc(C(F)(F)F)nc4)c3C[C@H]2CN1C(=O)c1ccccc1` : reported composite z-score = ?
Data returned: 0.223

Data request: Then this compound: `COC(=O)[C@]1(CCC(=O)OC(C)(C)C)N=C(c2ccc(OCCCO)cc2)O[C@@H]1c1ccccc1N=[N+]=[N-]`
Data returned: 0.0403

Data request: Then this compound: `O=C(NCCN1CCOCC1)[C@@H]1c2ccccc2C(=O)N(Cc2ccccc2C(F)(F)F)[C@H]1c1ccc(CO)cc1`
Data returned: -0.145

Data request: Then this compound: `C=CC[C@@]12N=C(c3ccc(OCCCO)cc3)O[C@@H]1c1ccccc1N(CCC)C2=O`
Data returned: -0.0485

Data request: Then this compound: `CC(C)NC(=O)[C@@H]1c2ccccc2C(=O)N(Cc2ccccc2C(F)(F)F)[C@H]1c1ccc(CO)cc1`
Data returned: 0.4

Data request: Then this compound: C=CCC(OC(C)=O)[C@@H]1[C@@H](N(Cc2cccc3ccccc23)C(=O)Cc2ccc(OC)cc2)c2cc(OCCCO)ccc2N1C(=O)Cc1ccc2ccccc2c1 (some centres not stated)
Data returned: -0.216

Data request: Then this compound: `CO[C@H]1O[C@H](CO)[C@@H](OC(=O)Nc2ccccc2)[C@H](OC(=O)Nc2ccccc2)[C@H]1OC(=O)Nc1ccccc1`
Data returned: 0.0519

Data request: Then this compound: `C=CCN1C(=O)[C@@]2(O[C@@H](CCn3cc([C@H](O)c4ccccc4)nn3)[C@H]([Si](C)(C)c3ccc(OC)cc3)[C@H]2C)c2cc(N3C(=O)c4cccc5cccc3c45)ccc21`
Data returned: -0.178

Data request: Then this compound: `C=C(COC)C(=O)CC[C@@H](OC(=O)c1ccccc1-c1ccccc1C(=O)O)c1ccc(OCCO)cc1`
Data returned: -0.145

Data request: Then this compound: [N-]=[N+]=NCc1ccccc1[C@@H]1OC(c2ccc(OCCCO)cc2)=N[C@]1(Cc1ccccc1N=[N+]=[N-])C(=O)NCC(O)CO (some centres not stated)
Data returned: 0.61

Data request: Then this compound: `COC(=O)[C@H](Cc1ccccc1)N1CC2=CCCC=C[C@@H]2[C@H]1[C@H](O)Cc1ccccc1`
Data returned: -0.0977

Data request: Then this compound: `COCCOC(=O)N1C(=O)[C@@]2(c3cc(C#Cc4ccc(OC)cc4)ccc31)[C@H](c1ccc(OCCO)cc1)N1[C@H](c3ccccc3)[C@H](c3ccccc3)OC(=O)[C@H]1[C@@H]2C(=O)NC[C@H](O)c1ccccc1`
Data returned: 0.0078

Data request: Then this compound: O=C(NCC(O)CO)C1N=C(c2ccc(OCCCO)cc2)N(c2ccccc2)O1 (configuration not stated)
Data returned: -0.103

Data request: Then this compound: `CN(C)CCCNC(=O)[C@@H]1c2ccccc2C(=O)N(Cc2ccccc2C(F)(F)F)[C@H]1c1ccc(CO)cc1`
Data returned: -0.1

Data request: Then this compound: `CCOC(=O)C1=CC[C@@H](c2ccccc2)N(S(=O)(=O)c2ccc(C)cc2)[C@H]1c1ccccc1I`
Data returned: -0.0195

Data request: Then this compound: `CC1=C([C@H](O)CCc2ccccc2)[C@H](CO)n2c(=O)n(-c3ccccc3)c(=O)n2C1`
Data returned: -0.0685

Data request: Then this compound: `C=CCN1Cc2ccccc2[C@H]2OC(c3ccc(OCCCO)cc3)=N[C@@]2(CCS(=O)(=O)c2ccccc2)C1=O`
Data returned: 0.0704

Data request: Then this compound: CC(C)=CCCC=C(C)C(O)C1C=CC2C(=O)N(c3ccccc3)C(=O)C2N1Nc1ccc(C#N)cc1 (configuration not stated)
Data returned: -0.0459

Data request: Then this compound: `COc1ccc(C(=O)Nc2ccc3c(c2)[C@@]2(O[C@H](CCO)[C@@H]([Si](C)(C)c4ccc(OC)cc4)[C@@H]2C)C(=O)N3Cc2ccccc2)cc1`
Data returned: -0.0599

Data request: Then this compound: `O=C1N(Cc2ccccc2)c2ccccc2C[C@@]12COC(c1ccc(OCCCO)cc1)=N2`
Data returned: 0.02

Data request: Then this compound: `C=CCNC(=O)[C@H]1[C@@H]2C(=O)O[C@@H](c3ccccc3)[C@@H](c3ccccc3)N2[C@@H](c2ccc(OCCO)cc2)[C@]12C(=O)Nc1ccc(C#CC3(O)CCCCCC3)cc12`
Data returned: -0.0607

Data request: Then this compound: CCCCCC1=C2CNC(CC(C)C)(C(=O)OC)C=C2C(C)C1=O (configuration not stated)
Data returned: -0.0165

Data request: Then this compound: `COC(=O)C(CC#Cc1ccc2c(c1)[C@]1(C(=O)N2)[C@H](c2ccccc2OCCO)N2[C@H](c3ccccc3)[C@H](c3ccccc3)OC(=O)[C@H]2[C@@H]1C(=O)N1CCc2cc(OC)c(OC)cc2C1)C(=O)OC`
Data returned: -0.117

Data request: Then this compound: `C=CCOC(=O)[C@@H]1[C@H]2C(=O)O[C@H](c3ccccc3)[C@H](c3ccccc3)N2[C@H](c2ccc(OCCOC(=O)[C@H]3C[C@H]4C(=O)N[C@@H](CCCCN(C)C)C(=O)N4[C@H]3c3ccc(O)cc3)cc2)[C@@]12C(=O)Nc1ccc(I)cc12`
Data returned: 0.0317

Data request: Then this compound: `CCCN1C(=O)[C@]2(CCC(=O)OC(C)(C)C)N=C(c3ccc(OCCCO)cc3)O[C@@H]2c2ccccc21`
Data returned: -0.124

Data request: Then this compound: `COC(=O)C(CC#Cc1ccc2c(c1)[C@]1(C(=O)N2)[C@H](C(=O)NC[C@H](O)c2ccccc2)[C@H]2C(=O)O[C@H](c3ccccc3)[C@H](c3ccccc3)N2[C@@H]1c1ccccc1OCCO)C(=O)OC`
Data returned: -0.1

Data request: Then this compound: O=C(NCC(O)CO)[C@@]1(CCS(=O)(=O)c2ccccc2)N=C(c2ccc(OCCCO)cc2)O[C@H]1c1ccccc1 (some centres not stated)
Data returned: 0.0676
